Biological target: C-CBL (residues 46-435) (Homo sapiens)
Construct: Purified CBL-B (residues 36-427) and C-CBL (residues 46-435) proteins from baculovirus-infected insect cells; made in house; host or cells: baculovirus-infected insect cells
Assay: Ligand Displacement Assay (LDA), HTRF competitive binding against BODIPY-labeled fluorescent tracer, C-CBL
Conditions: geometric mean of the number of tests, read-out: C-CBL Ki (nM) GMean
Source text: Ligand Displacement Assay (LDA) […]
parameter.measured: Ki

CC(NC1CC2(COC2)C1)c1nc(C(F)(F)F)cc2c(-c3cccc([C@H](c4nncn4C)C4CCC4)c3)n[nH]c12 (single isomer, unassigned) [Example C97]; 141 nM
C[C@@H]1CN([C@H](C)c2nc(C(F)(F)F)cc3c(-c4cccc(C5(Cc6nncn6C)COC5)c4)n[nH]c23)CCO1 (single isomer, unassigned) [Example D50]; 30.7 nM
Cn1cnnc1[C@@H](c1cccc(-c2n[nH]c3c(CN4CC[C@H](O)C4)nc(C(F)(F)F)cc23)c1)C1CCC1 [Example C77]; 29.5 nM
CC1CN(Cc2nc(C(F)(F)F)cc3c(-c4cccc(C5(Cc6nncn6C)COC5)c4)n[nH]c23)CCC1(F)F (single isomer, unassigned) [Example C32]; 55.6 nM
C[C@@H](c1nc(C(F)(F)F)cc2c(-c3cccc(C4(Cc5nncn5C)COC4)c3)n[nH]c12)N1CCCC1 (single isomer, unassigned) [Example D47]; 162 nM

Let's switch to this compound now.
Field request: Ki | item: CC(NC[C@H](C)O)c1nccc2c(-c3cccc([C@H](c4nncn4C)C4CCC4)c3)n[nH]c12 (single isomer, unassigned) [Example C125]
147 nM

---

Target: WT CBL-B (36-427) (Homo sapiens, UniProt Q13191)
Construct: N-terminal biotinylated WT CBL-B (36-427) and C-CBL (46-435) were captured on a streptavidin (SA) coated sensor chip
Test: Surface Plasmon Resonance (SPR) assay, binding affinity and kinetics, CBL-B
Settings: SPR at 10° C., biotinylated WT CBL-B (36-427) on streptavidin chip; geometric mean; read-out: CBL-B SPR Kd (nM) GMean
parameter.measured: log10(Kd) (log10 of the value in nM)
Hi team, quick reminder: these entries are log10 of Kd (nM).

Some entries whose results are on file:
Cn1cnnc1[C@@H](c1cccc(-c2n[nH]c3c(CN4C[C@@H](O)[C@@H](O)C4)nc(C(F)(F)F)cc23)c1)C1CCC1 [Example C75]; 0.67
C[C@@H](N[C@H]1C[C@H](O)C1)c1nc(C(F)(F)F)cc2c(-c3cccc([C@H](c4nncn4C)C4CCC4)c3)n[nH]c12 (single isomer, unassigned) [Example C92]; 0.43
C[C@H](c1nc(C(F)(F)F)cc2c(-c3cccc(C4(Cc5nncn5C)COC4)c3)n[nH]c12)N1CC(F)C1 (single isomer, unassigned) [Example D44]; 0.77
Cn1cnnc1CC1(c2cccc(-c3n[nH]c4c(CN5CC(F)C5)nc(C(F)(F)F)cc34)c2)COC1 [Example C65]; 0.69
C[C@@H](c1nc(C(F)(F)F)cc2c(-c3cccc(C4(Cc5nncn5C)COC4)c3)n[nH]c12)N1CCC(F)(F)C1 (single isomer, unassigned) [Example D5]; 1.34

Field request: log10(Kd) | item: CC(c1nc(C(F)(F)F)cc2c(-c3cccc(C4(Cc5nncn5C)COC4)c3)n[nH]c12)N1CCOCC1 (single isomer, unassigned) [Example C24]
1.23

Try the molecule CN(C)Cc1nc(C(F)(F)F)cc2c(-c3cccc([C@H](c4nncn4C)C4CCC4)c3)n[nH]c12 [Example D82]
0.94

Try the molecule C[C@H](N[C@H]1CCC[C@@H]1O)c1nc(C(F)(F)F)cc2c(-c3cccc([C@H](c4nncn4C)C4CCC4)c3)n[nH]c12 (single isomer, unassigned) [Example C47]
0.20

Try the molecule Cn1cnnc1[C@@H](c1cccc(-c2n[nH]c3c(CN[C@@H]4CC[C@@H](O)C4)nc(C(F)(F)F)cc23)c1)C1CCC1 [Example D35]
0.64

Try the molecule C[C@@H](c1nc(C(F)(F)F)cc2c(-c3cccc(C4(Cc5nncn5C)COC4)c3)n[nH]c12)N1CC(F)C1 (single isomer, unassigned) [Example D43]
0.83

---

Ki for assorted compounds
Target: CBL-B (residues 36-427) (Homo sapiens, UniProt Q13191)
Construct: Purified CBL-B (residues 36-427) and C-CBL (residues 46-435) proteins from baculovirus-infected insect cells; made in house; host or cells: baculovirus-infected insect cells
Assay: Ligand Displacement Assay (LDA), HTRF competitive binding against BODIPY-labeled fluorescent tracer, CBL-B
Conditions: geometric mean of the number of tests, read-out: CBL-B Ki (nM) GMean
Give your result in nM as a bare value.

Some entries whose results are on file:
CC(NC(=O)[C@@H](C)O)c1nc(C(F)(F)F)cc2c(-c3cccc([C@H](c4nncn4C)C4CCC4)c3)n[nH]c12 (single isomer, unassigned) [Example I6]; 7.8
Cn1cnnc1CC1(c2cccc(-c3n[nH]c4c(CN5CCCCC5)nc(C(F)(F)F)cc34)c2)COC1; 22.6
C[C@@H](N[C@@H]1CCOC1)c1nc(C(F)(F)F)cc2c(-c3cccc([C@H](c4nncn4C)C4CCC4)c3)n[nH]c12 (single isomer, unassigned); 6
Cn1cnnc1[C@@H](c1cccc(-c2n[nH]c3c(CNC4CCC4)nc(C(F)(F)F)cc23)c1)C1CCC1; 29.4

Field request: Ki | item: C[C@@H](N)c1nc(C(F)(F)F)cc2c(-c3cccc([C@H](c4nncn4C)C4CCCCC4)c3)n[nH]c12
36

Try the compound CC(NC[C@H](C)O)c1nccc2c(-c3cccc([C@H](c4nncn4C)C4CCC4)c3)n[nH]c12 (single isomer, unassigned) [Example C124]
7.9

Try the compound C[C@H](NC1CCC1)c1nc(C(F)(F)F)cc2c(-c3cccc(C4(Cc5nncn5C)COC4)c3)n[nH]c12
1.3

Try the compound CC(C)[C@H]1CNCCN1Cc1nc(C(F)(F)F)cc2c(-c3cccc([C@H](c4nncn4C)C4CCC4)c3)n[nH]c12
1.4

Try the compound C[C@H](NC1CC[C@H]1O)c1nc(C(F)(F)F)cc2c(-c3cccc([C@H](c4nncn4C)C4CCC4)c3)n[nH]c12 (single isomer, unassigned)
0.6

---

Target: CBL-B (residues 36-427) (Homo sapiens, UniProt Q13191)
Construct: Purified CBL-B (residues 36-427) and C-CBL (residues 46-435) proteins from baculovirus-infected insect cells; made in house; host or cells: baculovirus-infected insect cells
Experiment: Ligand Displacement Assay (LDA), HTRF competitive binding against BODIPY-labeled fluorescent tracer, CBL-B
Settings: geometric mean of the number of tests, read-out: CBL-B Ki (nM) GMean
Source text: Ligand Displacement Assay (LDA) […]
parameter.measured: Ki (nM)
Give your result in nM as a bare value.

Some entries whose results are on file:
Cn1cnnc1[C@@H](c1cccc(-c2n[nH]c3c(CN4CC[C@H](F)C4)nc(C(F)(F)F)cc23)c1)C1CCC1 [Example C110]; 50
CC(C)NC(C)c1nc(C(F)(F)F)cc2c(-c3cccc(C4(Cc5nncn5C)COC4)c3)n[nH]c12 (single isomer, unassigned) [Example C80]; 10.1
C[C@@H](NC1CC[C@H]1O)c1nc(C(F)(F)F)cc2c(-c3cccc([C@H](c4nncn4C)C4CCC4)c3)n[nH]c12 (single isomer, unassigned) [Example D31]; 4

Let's switch to this molecule now.
Query Ki on CBL-B (residues 36-427) (Homo sapiens, UniProt Q13191) for Cc1nccc2c(-c3cccc([C@H](c4nncn4C)C4CCC4)c3)n[nH]c12 [Example A7]
83.8

---

EC50 for assorted compounds
Molecular target: C-CBL (Homo sapiens, UniProt P22681)
Construct: endogenous in cells; host or cells: Jurkat HiBit-IL2 reporter cells, CBL-B knocked out by CRISPR
Assay: Jurkat HiBit-IL2 assay (CBL-B KO), reporter cell line expressing C-CBL only
Format: cell-based
Details: CBL-B KO (expressing C-CBL only), geometric mean, Table 16b (further repetition), read-out: CBL-B KO EC50 (nM) GMean
Lab note: write values as number then unit, every time.

Some entries whose results are on file:
C[C@H](NC1CCC1)c1nc(C(F)(F)F)cc2c(-c3cccc(C4(Cc5nncn5C)COC4)c3)n[nH]c12; 56 nM
C[C@@H](N[C@H]1CCC(F)(F)C1)c1nc(C(F)(F)F)cc2c(-c3cccc([C@H](c4nncn4C)C4CCC4)c3)n[nH]c12; 176 nM
C[C@@H](N[C@@H]1CC[C@H]1O)c1nc(C(F)(F)F)cc2c(-c3cccc([C@H](c4nncn4C)C4CCC4)c3)n[nH]c12 (single isomer, unassigned); 452 nM
C[C@H](N[C@H]1C[C@@H](O)C1)c1nc(C(F)(F)F)cc2c(-c3cccc([C@H](c4nncn4C)C4CCC4)c3)n[nH]c12 (single isomer, unassigned); 160 nM
C[C@@H](NC1CC(F)(F)C1)c1nc(C(F)(F)F)cc2c(-c3cccc([C@H](c4nncn4C)C4CCC4)c3)n[nH]c12 (single isomer, unassigned); 238 nM

Query EC50 on C-CBL (Homo sapiens, UniProt P22681) for C[C@@H](N[C@H]1C[C@H](O)C1)c1nc(C(F)(F)F)cc2c(-c3cccc([C@H](c4nncn4C)C4CCC4)c3)n[nH]c12 (single isomer, unassigned)
525 nM

Try the compound CC(NC[C@H](C)O)c1nccc2c(-c3cccc([C@H](c4nncn4C)C4CCC4)c3)n[nH]c12 (single isomer, unassigned)
3280 nM
